# Lookup of reported MCC keyed by entry
# Experiment: Cytotoxicity against HEL cells assessed as change in cell morphology
# Format: cell-based
# Condition context: human

The following molecules have reported results that may help.
Molecule: CCNC(=S)Nc1ccc(NS(C)(=O)=O)c(Oc2ccccc2)c1
Metric name: MCC
Observed measurement: > 200 µg/mL
--
Molecule: CS(=O)(=O)Nc1ccc(NC(=S)NCCc2ccc(Cl)cc2)cc1Oc1ccccc1
Metric name: MCC
Observed measurement: > 100 µg/mL
--
Molecule: Nc1nc2c(ncn2COCCO)c(=O)[nH]1 [ACYCLOVIR]
Metric name: MCC
Observed measurement: > 250 µg/mL
--
Molecule: Nc1nc2c(ncn2COC(CO)CO)c(=O)[nH]1 [GANCICLOVIR]
Metric name: MCC
Observed measurement: > 100 µg/mL
--
Molecule: CNC(=S)Nc1ccc(NS(C)(=O)=O)c(Oc2ccccc2)c1
Metric name: MCC
Observed measurement: > 100 µg/mL
--
Molecule: O=c1[nH]c(=O)n([C@H]2C[C@H](O)[C@@H](CO)O2)cc1/C=C/Br [BRIVUDINE]
Metric name: MCC
Observed measurement: > 250 µg/mL

// lookup MCC for NC(=O)c1ncn([C@@H]2O[C@H](CO)[C@@H](O)[C@H]2O)n1 [RIBAVIRIN] > 250 µg/mL

###

# Tested on: Human alphaherpesvirus 2
# Experiment: Antiviral activity against Herpes simplex virus 2 infected in HEL cells assessed as protection against in virus-induced cytopathogenicity
# Type: functional
Metric name: MIC50

Compound structure string: CCCNC(=S)Nc1ccc(NS(C)(=O)=O)c(Oc2ccccc2)c1
Target desc: Human alphaherpesvirus 2
Observed measurement: > 40 µg/mL
--
Compound structure string: CNC(=S)Nc1ccc(NS(C)(=O)=O)c(Oc2ccccc2)c1
Target desc: Human alphaherpesvirus 2
Observed measurement: > 100 µg/mL
--
Compound structure string: CS(=O)(=O)Nc1ccc(NC(=S)Nc2ccc([N+](=O)[O-])cc2)cc1Oc1ccccc1
Target desc: Human alphaherpesvirus 2
Observed measurement: > 8 µg/mL

Next, consider the following compound.
# query: MIC50 of entry `CS(=O)(=O)Nc1ccc(NC(=S)NCc2ccccc2)cc1Oc1ccccc1` > 8 µg/mL
